Reference source for all entries: ChEMBL document CHEMBL1961873

STUDY TARGET: Mitogen-activated protein kinase 11 (Homo sapiens) (UniProt Q15759);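 further: values are mean percent inhibition of p38beta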
Sequence (Q15759 whole entry): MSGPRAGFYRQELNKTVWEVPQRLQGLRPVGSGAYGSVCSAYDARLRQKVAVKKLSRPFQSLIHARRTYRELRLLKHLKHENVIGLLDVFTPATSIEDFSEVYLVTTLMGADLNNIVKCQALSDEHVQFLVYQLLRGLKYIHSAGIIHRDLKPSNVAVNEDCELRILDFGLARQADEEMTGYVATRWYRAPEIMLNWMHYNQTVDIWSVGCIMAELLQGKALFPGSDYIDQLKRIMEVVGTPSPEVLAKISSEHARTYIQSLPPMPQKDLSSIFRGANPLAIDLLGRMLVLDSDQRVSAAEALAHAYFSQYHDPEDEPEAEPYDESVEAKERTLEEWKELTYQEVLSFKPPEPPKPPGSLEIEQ
CONDITION SET: at 1 µM
Below is a list of entries, each paired with its recorded inhibition value.
# value in %; strip the unit string

CHEMICAL SMILES	UNIT SYMBOL	inhibition
NC(=O)c1sc(-n2cnc3ccc(C(F)(F)F)cc32)cc1OCc1ccccc1Br	%	5.44

Form field, inhibition with Mitogen-activated protein kinase 11 (Homo sapiens) (UniProt Q15759), item COc1cc(/C=N/Nc2ncnc3[nH]ncc23)ccc1O : 4.56

Form field, inhibition with Mitogen-activated protein kinase 11 (Homo sapiens) (UniProt Q15759), item c1cc(-c2cnn3nc(N4CCOCC4)ccc23)nc(NC2CC2)n1 : 13.1

Form field, inhibition with Mitogen-activated protein kinase 11 (Homo sapiens) (UniProt Q15759), item NS(=O)(=O)c1ccc(N/N=C2\C(=O)Nc3ccc4ncccc4c32)cc1 : 26.7

Form field, inhibition with Mitogen-activated protein kinase 11 (Homo sapiens) (UniProt Q15759), item CCNC(=O)O[C@H]1CN[C@H](C#Cc2cc3ncnc(Nc4ccc(OCc5cccc(F)c5)c(Cl)c4)c3s2)C1 : -1.11

Form field, inhibition with Mitogen-activated protein kinase 11 (Homo sapiens) (UniProt Q15759), item CC(=O)Nc1cccc(C#Cc2cncnc2Nc2ccc(OCc3cccc(F)c3)c(Cl)c2)c1 : 1.34

Form field, inhibition with Mitogen-activated protein kinase 11 (Homo sapiens) (UniProt Q15759), item Nc1ncc(-c2cccc(S(N)(=O)=O)c2)c2scc(-c3ccc(F)c(Cl)c3)c12 : 62.3

Form field, inhibition with Mitogen-activated protein kinase 11 (Homo sapiens) (UniProt Q15759), item Cc1ccc(O)cc1Nc1ccnc2cc(-c3ccccn3)ccc12 : 9.25

Form field, inhibition with Mitogen-activated protein kinase 11 (Homo sapiens) (UniProt Q15759), item O=S(=O)(CCNCc1ccc(-c2ccc3ncnc(Nc4ccc(OCc5cccc(F)c5)c(Cl)c4)c3c2)o1)c1ccccc1 : 6.99

Form field, inhibition with Mitogen-activated protein kinase 11 (Homo sapiens) (UniProt Q15759), item N#Cc1c(NC(=O)c2ccc(F)cc2)sc2c1CCCC2 : -0.91

Form field, inhibition with Mitogen-activated protein kinase 11 (Homo sapiens) (UniProt Q15759), item CN(C)CCOc1ccc(-c2nc(-c3ccncc3)c(-c3ccc4c(c3)CC/C4=N\O)[nH]2)cc1 : 6.69
